Target: T1, human LAG-3 on cells (HEK293-hLAG-3 stable cell line) (human, UniProt P18627 23-525)
T1 sequence: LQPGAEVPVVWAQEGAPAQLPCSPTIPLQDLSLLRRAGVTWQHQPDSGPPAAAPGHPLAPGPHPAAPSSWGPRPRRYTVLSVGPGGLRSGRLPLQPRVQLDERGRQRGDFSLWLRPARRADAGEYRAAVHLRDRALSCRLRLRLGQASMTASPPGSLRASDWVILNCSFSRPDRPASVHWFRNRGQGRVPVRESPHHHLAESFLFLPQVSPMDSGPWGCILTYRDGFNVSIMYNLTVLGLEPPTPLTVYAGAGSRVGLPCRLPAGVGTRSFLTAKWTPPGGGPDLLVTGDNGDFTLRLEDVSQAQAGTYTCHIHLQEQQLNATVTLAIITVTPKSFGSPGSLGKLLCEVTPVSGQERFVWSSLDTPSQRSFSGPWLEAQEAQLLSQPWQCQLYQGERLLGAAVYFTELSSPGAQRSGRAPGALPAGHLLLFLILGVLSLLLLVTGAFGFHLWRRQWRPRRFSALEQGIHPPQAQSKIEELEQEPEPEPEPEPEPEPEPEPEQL
Experiment: FACS, HEK293-hLAG-3, antibody 8.000 nM
Measured quantity: Mean fluorescence intensity
One number for each entry.

- Binder: "409B11E12 mouse-human chimeric antibody (antibody, V domains shown, also called mAb104-409B11E12) VH: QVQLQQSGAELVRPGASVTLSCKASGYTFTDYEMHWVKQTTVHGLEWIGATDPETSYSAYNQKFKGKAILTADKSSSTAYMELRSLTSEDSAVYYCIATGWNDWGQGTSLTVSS VL: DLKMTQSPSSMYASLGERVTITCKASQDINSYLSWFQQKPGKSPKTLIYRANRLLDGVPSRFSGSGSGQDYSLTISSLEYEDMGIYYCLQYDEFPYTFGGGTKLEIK"
  Observed value: 136
- Binder: "556F6B8 mouse-human chimeric antibody (antibody, V domains shown, also called mAb123-556F6B8; 556F8B8) VH: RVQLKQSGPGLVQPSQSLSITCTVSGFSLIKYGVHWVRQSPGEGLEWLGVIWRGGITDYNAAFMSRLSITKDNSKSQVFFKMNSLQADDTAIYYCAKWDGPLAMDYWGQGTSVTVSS VL: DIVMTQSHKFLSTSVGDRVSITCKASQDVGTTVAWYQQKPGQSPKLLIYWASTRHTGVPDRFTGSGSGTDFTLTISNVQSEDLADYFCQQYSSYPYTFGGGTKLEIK"
  Observed value: 93.5

Now for the binder whose Mean fluorescence intensity we want.
*Q* Find the recorded Mean fluorescence intensity belonging to 405B8H3 mouse-human chimeric antibody (antibody, V domains shown, also called mAb103-405B8H3) VH: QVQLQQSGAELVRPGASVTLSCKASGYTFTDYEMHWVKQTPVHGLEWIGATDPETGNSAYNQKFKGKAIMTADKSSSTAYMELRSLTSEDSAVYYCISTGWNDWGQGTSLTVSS VL: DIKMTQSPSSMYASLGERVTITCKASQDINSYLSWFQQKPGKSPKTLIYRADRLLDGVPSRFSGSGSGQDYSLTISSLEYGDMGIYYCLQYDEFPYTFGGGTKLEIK and report it.
*A* 137

// data source = patent US20210155689A1
